In this section we review reported % PI+ cells values for a set of compounds.
System: GM16513 cells
Assay type: cell-based
Conditions: 1.3 µM, 3 days, PI positive cells (dead cells)

{"Compound": "O=C(c1ccc(Cl)cc1Cl)n1nnc2ccccc21 [ITSA-1]", "% PI+ cells [%]": 1}
{"Compound": "CCCCc1nc2cc(/C=C/C(=O)NO)ccc2n1CCN(CC)CC [Pracinostat]", "% PI+ cells [%]": 4}
{"Compound": "Nc1ccccc1NC(=O)CCCCCCC(=O)Nc1ccccc1 [BML-210]", "% PI+ cells [%]": 2}
{"Compound": "O=C(CCCCCCC(=O)NO)NO [Suberoyl bis-hydroxamic acid]", "% PI+ cells [%]": 1}
{"Compound": "CCCCOc1ccc(CC(=O)NO)cc1 [Bufexamac]", "% PI+ cells [%]": 2}

---

Tested on: GM16513 cells
Test: Catalase import immunofluorescence, high-content screening (% importing cells)
Format: cell-based, human
Conditions: GM16513 cells, 10 µM, 3 days
Counter-ions that a name gives are not always drawn.
In this section we review reported % Importing cells values for a set of molecules.
Observable: % Importing cells (%)

{"Molecule": "CCN(CC)Cc1ccc2cc(COC(=O)Nc3ccc(C(=O)NO)cc3)ccc2c1 [Givinostat (hydrochloride monohydrate), Givinostat]", "Test Target": "GM16513 cells", "Measured": 32}
{"Molecule": "Cn1cc(-c2ccc(S(=O)(=O)n3ccc(/C=C/C(=O)Nc4ccccc4N)c3)cc2)cn1 [Domatinostat]", "Test Target": "GM16513 cells", "Measured": 33}
{"Molecule": "COc1cccc2c1c(O)c(C(=O)N(C)c1ccc(C(F)(F)F)cc1)c(=O)n2C [Tasquinimod]", "Test Target": "GM16513 cells", "Measured": 22}
{"Molecule": "O=C(CCCCCCNC(=O)c1cnc(N(c2ccccc2)c2ccccc2)nc1)NO [Ricolinostat]", "Test Target": "GM16513 cells", "Measured": 89}
{"Molecule": "Cc1cc(Cl)ccc1OCCCC(=O)NO [Droxinostat]", "Test Target": "GM16513 cells", "Measured": 23}
{"Molecule": "Cn1cc(CNCC2CCN(c3ncc(C(=O)NO)cn3)CC2)c2ccccc21 [Quisinostat]", "Test Target": "GM16513 cells", "Measured": 86}
{"Molecule": "CCCCN(Cc1ccc(C(=O)NO)cc1)C(=O)Nc1ccccc1 [Nexturastat A]", "Test Target": "GM16513 cells", "Measured": 83}
{"Molecule": "O=C(CCCCCCC(=O)NO)NO [Suberoyl bis-hydroxamic acid]", "Test Target": "GM16513 cells", "Measured": 57}
{"Molecule": "Nc1ccccc1NC(=O)CCCCCCC(=O)Nc1ccccc1 [BML-210]", "Test Target": "GM16513 cells", "Measured": 73}
{"Molecule": "O=C(NO)c1ccc(CC(=O)N(CCO)c2ccccc2)cc1 [HPOB]", "Test Target": "GM16513 cells", "Measured": 55}
{"Molecule": "C#Cc1cccc(Nc2ncnc3cc(OC)c(OCCCCCCC(=O)NO)cc23)c1 [CUDC-101]", "Test Target": "GM16513 cells", "Measured": 90}
{"Molecule": "Nc1ccccc1NC(=O)c1ccc(Cn2cc(-c3ccc(C(=O)NCc4cccnc4)cc3)nn2)cc1 [Nampt-IN-3]", "Test Target": "GM16513 cells", "Measured": 74}
{"Molecule": "Nc1ccc(-c2cccs2)cc1NC(=O)c1ccc2nc(N3CCNCC3)ccc2c1 [ACY-957]", "Test Target": "GM16513 cells", "Measured": 0}
{"Molecule": "Nc1ccccc1NC(=O)c1ccc(CNC(=O)OCc2cccnc2)cc1 [Entinostat]", "Test Target": "GM16513 cells", "Measured": 58}
{"Molecule": "Cn1c(CCCCCCC(=O)NO)nc2cc(N(CCCl)CCCl)ccc21 [EDO-S101]", "Test Target": "GM16513 cells", "Measured": 89}
{"Molecule": "O=C(NO)c1cnc(NC2(c3ccccc3)CC2)nc1 [ACY-738]", "Test Target": "GM16513 cells", "Measured": 85}

---

In this section we review reported % PI+ cells values for a set of compounds.
Test system: GM16513 cells
Format: cell-based
Settings: 10 µM, 3 days, PI positive cells (dead cells)
Counter-ions that a name gives are not always drawn.

{"Compound": "O=C(/C=C/c1ccc(CN(CCO)CCc2c[nH]c3ccccc23)cc1)NO", "Test Target": "GM16513 cells", "Readout Units": "%", "% PI+ cells": 35}
{"Compound": "O=C(CCCCCCNC(=O)c1cnc(N(c2ccccc2)c2ccccc2)nc1)NO", "Test Target": "GM16513 cells", "Readout Units": "%", "% PI+ cells": 5}
{"Compound": "CN(C)Cc1ccc(S(=O)(=O)n2ccc(/C=C/C(=O)NO)c2)cc1 [Resminostat (hydrochloride), Resminostat]", "Test Target": "GM16513 cells", "Readout Units": "%", "% PI+ cells": 8}
{"Compound": "O=C(NO)c1cnc(N2C[C@@H]3[C@H](C2)[C@H]3NCc2ccc3cc(F)ccc3n2)nc1", "Test Target": "GM16513 cells", "Readout Units": "%", "% PI+ cells": 37}
{"Compound": "CC(C)(C)c1ccc(C(=O)Nc2ccc(C(=O)NO)cc2)cc1", "Test Target": "GM16513 cells", "Readout Units": "%", "% PI+ cells": 5}
{"Compound": "CCN1CCN(C(c2cccnc2)c2cc(Cl)c3cccnc3c2O)CC1 (stereo not shown)", "Test Target": "GM16513 cells", "Readout Units": "%", "% PI+ cells": 3}
{"Compound": "CC(=O)Nc1ccc(C(=O)Nc2cc(-c3cccs3)ccc2N)cc1", "Test Target": "GM16513 cells", "Readout Units": "%", "% PI+ cells": 3}
{"Compound": "Cn1c(/C=C/C(=O)NO)ccc1/C=C/C(=O)c1cccc(F)c1", "Test Target": "GM16513 cells", "Readout Units": "%", "% PI+ cells": 90}
{"Compound": "Nc1ccccc1NC(=O)CCCCCC(=O)Nc1ccccc1", "Test Target": "GM16513 cells", "Readout Units": "%", "% PI+ cells": 4}
{"Compound": "CC(C)(CNC(=O)c1cccc(-c2noc(C(F)(F)F)n2)c1)c1coc(-c2ccccc2)n1", "Test Target": "GM16513 cells", "Readout Units": "%", "% PI+ cells": 1}
{"Compound": "Nc1ccc(-c2cccs2)cc1NC(=O)c1ccc2nc(N3CCNCC3)ccc2c1", "Test Target": "GM16513 cells", "Readout Units": "%", "% PI+ cells": 38}
{"Compound": "Cn1cc(CNCC2CCN(c3ncc(C(=O)NO)cn3)CC2)c2ccccc21", "Test Target": "GM16513 cells", "Readout Units": "%", "% PI+ cells": 38}
{"Compound": "O=C(c1ccc(Cl)cc1Cl)n1nnc2ccccc21", "Test Target": "GM16513 cells", "Readout Units": "%", "% PI+ cells": 1}
{"Compound": "CCCCOc1ccc(CC(=O)NO)cc1", "Test Target": "GM16513 cells", "Readout Units": "%", "% PI+ cells": 1}
{"Compound": "O=C(NO)c1ccc(CNc2cccc3cccnc23)cc1", "Test Target": "GM16513 cells", "Readout Units": "%", "% PI+ cells": 4}
{"Compound": "O=C(NO)c1cccc2ccccc12 [1-Naphthohydroxamic acid]", "Test Target": "GM16513 cells", "Readout Units": "%", "% PI+ cells": 1}
{"Compound": "Nc1ccccc1NC(=O)c1cnccn1", "Test Target": "GM16513 cells", "Readout Units": "%", "% PI+ cells": 1}
{"Compound": "COc1cccc2c1c(O)c(C(=O)N(C)c1ccc(C(F)(F)F)cc1)c(=O)n2C", "Test Target": "GM16513 cells", "Readout Units": "%", "% PI+ cells": 1}
{"Compound": "CN1CCc2c(c3ccccc3n2Cc2ccc(C(=O)NO)cc2)C1.Cl [Tubastatin A (Hydrochloride), Tubastatin A]", "Test Target": "GM16513 cells", "Readout Units": "%", "% PI+ cells": 1}
{"Compound": "O=C(NO)c1ccc(CC(=O)N(CCO)c2ccccc2)cc1", "Test Target": "GM16513 cells", "Readout Units": "%", "% PI+ cells": 1}
{"Compound": "O=C(NO)c1ccc(CN(c2cnccn2)c2cnccn2)cc1", "Test Target": "GM16513 cells", "Readout Units": "%", "% PI+ cells": 2}
{"Compound": "CC1(C)c2cccc(C(=O)NO)c2CN1c1cnc(C(F)(F)F)cn1", "Test Target": "GM16513 cells", "Readout Units": "%", "% PI+ cells": 7}
{"Compound": "O=C(/C=C/c1cccc(S(=O)(=O)Nc2ccccc2)c1)NO", "Test Target": "GM16513 cells", "Readout Units": "%", "% PI+ cells": 21}
{"Compound": "Cn1c(CCCCCCC(=O)NO)nc2cc(N(CCCl)CCCl)ccc21", "Test Target": "GM16513 cells", "Readout Units": "%", "% PI+ cells": 8}
{"Compound": "CCOC(=O)NCCCC(=O)NCCc1ccccc1 [Santacruzamate A]", "Test Target": "GM16513 cells", "Readout Units": "%", "% PI+ cells": 1}
{"Compound": "Cl.O=C(NO)c1ccc(Cn2cc(-c3ccc(CN4CCCC4)cc3)nn2)cc1", "Test Target": "GM16513 cells", "Readout Units": "%", "% PI+ cells": 40}
{"Compound": "Nc1[nH]c(=O)nc2c1ncn2[C@@H]1O[C@H](CO)[C@@H](O)[C@H]1O [Crotonoside]", "Test Target": "GM16513 cells", "Readout Units": "%", "% PI+ cells": 1}
{"Compound": "O=C(NO)c1cnc(NC2(c3cccc(F)c3)CCCCC2)nc1", "Test Target": "GM16513 cells", "Readout Units": "%", "% PI+ cells": 2}
{"Compound": "CC(/C=C/C(=O)NO)=C\\[C@@H](C)C(=O)c1ccc(N(C)C)cc1", "Test Target": "GM16513 cells", "Readout Units": "%", "% PI+ cells": 30}
{"Compound": "CCCCN(Cc1ccc(C(=O)NO)cc1)C(=O)Nc1ccccc1", "Test Target": "GM16513 cells", "Readout Units": "%", "% PI+ cells": 4}
{"Compound": "Cn1cc(-c2ccc(S(=O)(=O)n3ccc(/C=C/C(=O)Nc4ccccc4N)c3)cc2)cn1", "Test Target": "GM16513 cells", "Readout Units": "%", "% PI+ cells": 7}
{"Compound": "Cc1cc(C)cc(C(=O)NOCCCCCC(=O)NO)c1", "Test Target": "GM16513 cells", "Readout Units": "%", "% PI+ cells": 15}
{"Compound": "O=C(CCCCCCC(=O)Nc1ccc(CN[C@H](C(=O)OC2CCCC2)c2ccccc2)cc1)NO", "Test Target": "GM16513 cells", "Readout Units": "%", "% PI+ cells": 2}
{"Compound": "CC(=O)Nc1ccc(C(=O)Nc2ccc(F)cc2N)cc1", "Test Target": "GM16513 cells", "Readout Units": "%", "% PI+ cells": 2}
{"Compound": "Nc1ccccc1NC(=O)c1ccc(CCCC(=O)Nc2ccc([C@@H]3C[C@H]3N)cc2)cc1", "Test Target": "GM16513 cells", "Readout Units": "%", "% PI+ cells": 34}
{"Compound": "Cc1nn(C)cc1CN1CCC(c2ccc(C(=O)Nc3ccccc3N)cc2)CC1", "Test Target": "GM16513 cells", "Readout Units": "%", "% PI+ cells": 7}
{"Compound": "O=C(NO)c1cccc(C(=O)NCCc2ccccc2)c1", "Test Target": "GM16513 cells", "Readout Units": "%", "% PI+ cells": 1}
